# Assay system: ArtiMYC (3) (UniProt P01106)
# Sequence (P01106 365-454): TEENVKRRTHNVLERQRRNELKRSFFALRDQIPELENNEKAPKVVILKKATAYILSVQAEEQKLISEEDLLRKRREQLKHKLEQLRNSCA
# Assay method text: EMSA
# Applied conditions: EMSA: 20 mM HEPES pH 8.0, 150 mM NaCl, 5% glycerol, 1 mM EDTA, 2 mM MgCl2, 0.5 mg/mL BSA, 1 mM DTT, 0.05% NP-40; 4 nM DNA; 30 min RT then 15 min on ice; 10% …
Value kind: pKd
In plain terms, pKd is the concentration in mol/L turned into minus its base-10 logarithm.

Note to self: pKd recorded for ACCCCACCACGTGGTGCCT (double strand) [E-box DNA] was 7.62

Reference for the values: paper PMC13065503
